Biological target: T1, P6-AA-12HGe-R
T1 chain: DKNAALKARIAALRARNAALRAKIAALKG
Experiment: two-hybrid library CCmax;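 note: natural log of median RNA to DNA barcode read ratio; higher means stronger binding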
Details: mean of both orientations

Binder	interaction score
DENAALEAMIAALMAMNAALMAEIAALEG [P5-AA-12HGe-M]	0.594
DENAALEAQIAALQAQNAALQAEIAALEG [P5-AA-12HGe-Q]	1.09
DENAALEAEIAALEAENAALEAEIAALEG [P5-AA-12HGe-E]	1.58
DENAALEADIAALDADNAALDAEIAALEG [P5-AA-12HGe-D]	-0.833
DENAALEATIAALTATNAALTAEIAALEG [P5-AA-12HGe-T]	0.245
DENAALEAAIAALAAANAALAAEIAALEG [P5-AA-12HGe-A]	0.304
DENAALEASIAALSASNAALSAEIAALEG [P5-AA-12HGe-S]	-0.734
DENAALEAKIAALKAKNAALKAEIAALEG [4H1401-AA]	-1.02
